molecular target: Estrogen receptor (Bos taurus) (UniProt Q9XSB5+P49884); test: Relative binding affinity for Estrogen receptor compared to 17-beta-estradiol; assay type: protein assay
Measured parameter: RA

Here is how some compounds turned out for RA.
# Compound, RA
rows = [
    ("CC(C)(c1ccc(O)cc1)C(C)(C)c1ccc(O)cc1", 0.011),
    ("CCC(C)(c1ccc(O)cc1)C(C)(CC)c1ccc(O)cc1 (stereo unspecified)", 0.0027),
    ("CC(C)(c1ccc(O)c(O)c1)C(C)(C)c1ccc(O)c(O)c1", 0.006),
    ("CC(C)(c1ccc(F)c(O)c1)C(C)(C)c1ccc(F)c(O)c1", 0.0031),
    ("CC(=O)Oc1ccc(C(C)(C)C(C)(C)c2ccc(OC(C)=O)c(OC(C)=O)c2)cc1OC(C)=O", 0.00023),
]

(a) CC(=O)Oc1cc(OC(C)=O)cc(C(C)(C)C(C)(C)c2cc(OC(C)=O)cc(OC(C)=O)c2)c1
(b) CCC(CC)(c1cccc(O)c1)C(CC)(CC)c1cccc(O)c1
Enquiry: Which value of RA is smaller, the one for a or the one for b ? Respond using the label that marks the chosen record.
Return: a
(a: 7.1e-05, b: 0.0042)

(A) CCC(CC)(c1ccc(O)cc1)C(CC)(CC)c1ccc(O)cc1
(B) CCC(c1cccc(O)c1)C(CC)c1cccc(O)c1 (stereo unspecified)
(C) CC(C)(c1cc(O)cc(O)c1)C(C)(C)c1cc(O)cc(O)c1
(D) CC(C)(c1cccc(O)c1)C(C)(C)c1cccc(O)c1
Enquiry: Hey, quick one: sort these by RA, low to high? Respond with an ordered listing of the labels, as requested.
Return: C, A, D, B
(C: 4.3e-05, A: 0.005, D: 0.01, B: 0.052)

###

biological target: Estrogen receptor (Bos taurus) (UniProt Q9XSB5+P49884); assay: Association constant for Estrogen receptor; type: protein assay
Measured parameter: Ka (M⁻¹)

Answered examples (8):
# Compound, Obs value
data = [
    ("CC(=O)Oc1ccc(C(C)(C)C(C)(C)c2ccc(OC(C)=O)c(OC(C)=O)c2)cc1OC(C)=O", "1.5e+06"),
    ("CC(C)(c1ccc(O)cc1)C(C)(C)c1ccc(O)cc1", "7.3e+07"),
    ("CCC(C)(c1ccc(O)cc1)C(C)(CC)c1ccc(O)cc1 (stereo unspecified)", "1.8e+07"),
    ("CC(C)(c1ccc(F)c(O)c1)C(C)(C)c1ccc(F)c(O)c1", "2.1e+07"),
    ("CC(C)(c1cccc(O)c1)C(C)(C)c1cccc(O)c1", "6.7e+07"),
    ("CC(C)(c1cc(O)cc(O)c1)C(C)(C)c1cc(O)cc(O)c1", 290000),
    ("CCC(CC)(c1ccc(O)cc1)C(CC)(CC)c1ccc(O)cc1", "4.8e+07"),
    ("CCC(CC)(c1cccc(O)c1)C(CC)(CC)c1cccc(O)c1", "2.8e+07"),
]

(A) CC(C)(c1ccc(O)c(O)c1)C(C)(C)c1ccc(O)c(O)c1
(B) CC(=O)Oc1cc(OC(C)=O)cc(C(C)(C)C(C)(C)c2cc(OC(C)=O)cc(OC(C)=O)c2)c1
(C) CCC(c1cccc(O)c1)C(CC)c1cccc(O)c1 (stereo unspecified)
Enquiry: Rank entries according to their Ka, from the largest number down. Use the labels to give the requested order.
Return: C, A, B
(C: 3.5e+08 M⁻¹, A: 4e+07 M⁻¹, B: 480000 M⁻¹)
